ASSAYED SYSTEM: 5-HT2A receptor (Homo sapiens (Human), UniProt P28223)
PROTOCOL: 5-HT2A radioligand competition binding ([3H]LSD or [3H]ketanserin)
QUANTITY NAME: affinity at 5-HT2A receptors (in words)

COc1cc(SCC(F)(F)C(F)F)c(OC)cc1CCN	high affinity
COc1cc(SC(F)F)c(OC)cc1CCN	high affinity
COc1cc(SCCC(F)F)c(OC)cc1CCN	high affinity

====

PROTOCOL: PK profile in C57BL/6J mice (plasma, brain)
Assay type: in vivo, mouse
MEASUREMENT SETUP: male, C57BL/6J, mouse, sc; plasma; s.c. 3 mg/kg
Experimental: PK Profile in Mice. To evaluate the full PK profile for I-1 in mice, plasma and brain samples were determined in male C57BL/6J mice following subcutaneous (s.c.) and oral (p.o.) administration at 3 mg/kg (see Table 7 and FIGS. 54A and 54B). […] Plasma and brain concentrations were determined using LC-MS/MS and PK parameters were determined using a non-compartmental analysis (NCA) using Phoenix WinNonlin Pro (v8.3.1, Pharsight, Inc, USA) software.
QUANTITY NAME: Tmax (min)
Report the figure in min without appending any unit label.

QUERY: Field request: Tmax | item: COc1cc(SC(F)(F)F)c(OC)cc1CCN
RESULT: 4.8

====

PROTOCOL: Brain protein binding
Type: in vitro ADME
MEASUREMENT SETUP: dilute brain homogenate
QUANTITY NAME: fraction unbound
Answer with the value's number alone.

QUERY: Please give the measured fraction unbound for this compound: COc1cc(SC(F)(F)F)c(OC)cc1CCN
RESULT: 0.014

====

PROTOCOL: PK profile in C57BL/6J mice (plasma, brain)
Assay type: in vivo, mouse
MEASUREMENT SETUP: male, C57BL/6J, mouse, sc; plasma; s.c. 3 mg/kg; read-out: T1/2 (converted)
QUANTITY NAME: half-life (h)
Answer in h, number only, no unit symbol.

QUERY: For COc1cc(SC(F)(F)F)c(OC)cc1CCN [Compound I-1] , what is its reported half-life?
RESULT: 3.92

====

PROTOCOL: PK profile in Wistar rats (plasma, brain, urine)
Format: in vivo, rat
MEASUREMENT SETUP: male, Wistar, rat, urine; IV 1 mg/kg; read-out: Renal clearance (converted)
QUANTITY NAME: CL renal

QUERY: Quick check: CL renal of COc1cc(SC(F)(F)F)c(OC)cc1CCN ?
RESULT: 1.14 mL/min/kg

====

ASSAYED SYSTEM: 5-HT1A receptors (Homo sapiens (Human))
PROTOCOL: 5-HT1A receptor function
QUANTITY NAME: EC50 (nM)
// return numeric value only (unit: nM, not printed)

QUERY: Can you share its EC50? I mean this compound: COc1cc(SC(F)(F)F)c(OC)cc1CCN
RESULT: 88

====

PROTOCOL: PK profile in C57BL/6J mice (plasma, brain)
Assay type: in vivo, mouse
MEASUREMENT SETUP: male, C57BL/6J, mouse, po; brain; p.o. 3 mg/kg; read-out: T1/2 (converted)
QUANTITY NAME: half-life (h)
Response body: numeric value in h, unit text excluded.

QUERY: Looking for the measured half-life of COc1cc(SC(F)(F)F)c(OC)cc1CCN , can you help?
RESULT: 2.73

====

ASSAYED SYSTEM: human 5-HT2B receptor (Homo sapiens (Human))
Sequence (P41595 whole entry, looked up): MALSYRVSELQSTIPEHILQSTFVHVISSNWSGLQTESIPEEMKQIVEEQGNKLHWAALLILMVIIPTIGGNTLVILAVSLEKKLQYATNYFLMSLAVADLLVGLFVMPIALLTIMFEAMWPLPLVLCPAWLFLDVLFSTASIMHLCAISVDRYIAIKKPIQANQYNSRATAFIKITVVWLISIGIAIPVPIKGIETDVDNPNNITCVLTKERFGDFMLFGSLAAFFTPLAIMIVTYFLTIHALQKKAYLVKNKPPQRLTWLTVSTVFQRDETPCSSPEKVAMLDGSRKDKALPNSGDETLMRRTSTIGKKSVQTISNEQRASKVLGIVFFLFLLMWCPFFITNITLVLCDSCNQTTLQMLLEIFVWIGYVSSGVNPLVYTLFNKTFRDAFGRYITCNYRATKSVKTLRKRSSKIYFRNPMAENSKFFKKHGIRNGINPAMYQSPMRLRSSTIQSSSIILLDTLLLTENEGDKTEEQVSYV
PROTOCOL: 5-HT2B radioligand binding ([125I](±)DOI)
Procedure: In another series of 5-HT1A,2A,2B radioligand competition binding assays, the conditions were as follows: For 5-HT1A assays, cell membrane homogenates (˜30 μg protein) derived from HEK-293 cells expressing human 5-HT1ARs were incubated with 0.5 nM [^3H]8-hydroxy-2-(di-n-propylamino)tetralin ([^3H]8-OH-DPAT) for 60 min at room temperature in the presence or absence of the test article. Non-specific binding was determined in the presence of 10 μM 8-OH-DPAT. […]
QUANTITY NAME: pKi
pKi is a log-scale quantity: -log10 of the concentration expressed in molar.

QUERY: Enter reported pKi observed with human 5-HT2B receptor (Homo sapiens (Human)) for COc1cc(CC(C)N)c(OC)cc1I (racemic) [DOI, (±)-2,5-dimethoxy-4-iodoamphetamine, reference compound]
RESULT: 8.82

====

PROTOCOL: Plasma and brain concentrations after dosing in mice (screening)
Assay type: in vivo, mouse
MEASUREMENT SETUP: mouse, brain/plasma, subcutaneous, 3 mg/kg, 160 min after 3 mg/kg; read-out: brain/plasma ratio, 160 min
Below: a set of entries, each annotated with reported Kp at 160 min.
A bare number is all that is needed in reply.

Recorded Kp at 160 min, per entry:
COc1cc(SC(F)F)c(OC)cc1CCN	74
COc1cc(C(C)(C)C)c(OC)cc1CCN	57.1
COc1cc(SCC(F)(F)C(F)F)c(OC)cc1CCN	12.3

We next turn to a different molecule, shown below.
QUERY: Kp at 160 min for COc1cc(SCCC(F)F)c(OC)cc1CCN ?
RESULT: 9.3

====

PROTOCOL: PK in Sprague-Dawley rats (plasma, brain, CSF)
Type: in vivo, rat
MEASUREMENT SETUP: male, Sprague-Dawley, rat; CSF; IV 1 mg/kg
QUANTITY NAME: MRT inf (h)
Give a bare numeral; the unit h is implied.

QUERY: Which MRT inf reading was recorded for the molecule COc1cc(SC(F)(F)F)c(OC)cc1CCN ?
RESULT: 1.51

====

ASSAYED SYSTEM: 5-HT2C receptor (Homo sapiens (Human))
Sequence (P28335 whole entry, looked up): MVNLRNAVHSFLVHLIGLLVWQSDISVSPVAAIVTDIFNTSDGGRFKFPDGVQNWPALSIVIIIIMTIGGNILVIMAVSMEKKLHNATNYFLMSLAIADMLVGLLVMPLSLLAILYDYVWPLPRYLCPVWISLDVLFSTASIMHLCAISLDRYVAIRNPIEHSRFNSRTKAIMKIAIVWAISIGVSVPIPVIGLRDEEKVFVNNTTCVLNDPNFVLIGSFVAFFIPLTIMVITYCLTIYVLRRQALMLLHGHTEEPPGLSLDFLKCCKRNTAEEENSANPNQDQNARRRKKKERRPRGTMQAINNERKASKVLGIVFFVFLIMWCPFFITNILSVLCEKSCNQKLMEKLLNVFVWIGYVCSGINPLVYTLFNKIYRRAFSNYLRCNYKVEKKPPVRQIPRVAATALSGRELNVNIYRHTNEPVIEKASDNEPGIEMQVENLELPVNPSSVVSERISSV
PROTOCOL: 5-HT2C radioligand competition binding ([3H]mesulergine or [3H]LSD)
MEASUREMENT SETUP: read-out: 5-HT2C, Ki; [3H]LSD; high-affinity active state
QUANTITY NAME: pKi
Field pKi (float): negative decimal logarithm of the concentration in molar.

QUERY: Would you kindly share the measured pKi for COc1cc(SC(F)(F)F)c(OC)cc1CCNCC1CC1 ?
RESULT: 9.01

====

ASSAYED SYSTEM: MAO-A (Homo sapiens (Human))
Sequence (P21397 whole entry, looked up): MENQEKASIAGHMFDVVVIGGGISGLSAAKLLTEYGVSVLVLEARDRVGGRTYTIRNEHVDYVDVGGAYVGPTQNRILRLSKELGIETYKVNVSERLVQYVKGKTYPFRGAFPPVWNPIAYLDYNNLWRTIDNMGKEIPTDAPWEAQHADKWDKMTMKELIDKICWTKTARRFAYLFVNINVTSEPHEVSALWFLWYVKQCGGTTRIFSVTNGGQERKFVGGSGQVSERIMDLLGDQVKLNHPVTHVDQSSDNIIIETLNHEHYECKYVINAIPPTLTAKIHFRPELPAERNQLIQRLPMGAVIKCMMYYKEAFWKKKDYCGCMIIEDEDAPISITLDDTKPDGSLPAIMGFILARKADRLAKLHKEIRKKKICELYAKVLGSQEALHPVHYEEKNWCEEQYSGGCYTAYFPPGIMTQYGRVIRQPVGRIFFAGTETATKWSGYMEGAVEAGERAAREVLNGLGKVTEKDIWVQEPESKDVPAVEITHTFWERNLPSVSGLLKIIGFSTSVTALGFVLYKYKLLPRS
PROTOCOL: Recombinant human MAO-A activity (stability)
Type: in vitro ADME
MEASUREMENT SETUP: hrMAO 0.02 mg/mL, read-out: MAO-A, t1/2
QUANTITY NAME: half-life at 1 μM

In the examples that follow, each entry is paired with its recorded half-life at 1 μM.
[2H]C([2H])([2H])Oc1cc(C(F)(F)F)c(OC([2H])([2H])[2H])cc1CCN [II-23]	> 120 min
[2H]C([2H])([2H])Oc1cc(C2CCCC2)c(OC([2H])([2H])[2H])cc1CCN [II-4]	> 120 min
[2H]C([2H])(N)Cc1cc(OC)c(C(F)(F)F)cc1OC [IV-3]	102 min
[2H]C([2H])([2H])Oc1cc(SC(F)(F)F)c(OC([2H])([2H])[2H])cc1CCN [II-10]	> 120 min

QUERY: Given COc1cc(SC)c(OC)cc1CCN [Reference Compound 3, reference compound] , state its recorded half-life at 1 μM.
RESULT: > 120 min

QUERY: // next record COc1cc(C2CCCC2)c(OC)cc1CCN [Compound I-13]
RESULT: > 120 min

QUERY: // next record COc1cc(C(F)(F)F)c(OC)cc1CCN [Reference Compound 4, reference compound]
RESULT: 87.7 min

QUERY: Can you handle COc1cc(SCCC(F)(F)F)c(OC)cc1CCN [Compound I-2] next?
RESULT: 30.9 min

QUERY: What would you report for COc1cc(SC(F)(F)F)c(OC)cc1CCN [Compound I-1] ?
RESULT: > 120 min

QUERY: Please answer likewise for COc1cc(OCCCF)c(OC)cc1CCN [Compound I-7]
RESULT: > 120 min

QUERY: # repeat for COc1cc(SCCCF)c(OC)cc1CCN [Compound I-4]
RESULT: 45 min

====

PROTOCOL: PK in Sprague-Dawley rats (plasma, brain, CSF)
Format: in vivo, rat
MEASUREMENT SETUP: male, Sprague-Dawley, rat; plasma; IV 1 mg/kg
QUANTITY NAME: Cmax (ng/mL)
Answer in ng/mL, number only, no unit symbol.

QUERY: Can you look up the measured Cmax of COc1cc(SC(F)(F)F)c(OC)cc1CCN for me?
RESULT: 250

====

PROTOCOL: PK profile in C57BL/6J mice (plasma, brain)
Type: in vivo, mouse
MEASUREMENT SETUP: male, C57BL/6J, mouse, po; plasma; p.o. 3 mg/kg
QUANTITY NAME: AUC(0-t)

QUERY: Look at this compound and give its reported AUC(0-t). COc1cc(SC(F)(F)F)c(OC)cc1CCN
RESULT: 625 ng·h/mL
